Measured Euclidean distance, listed per entry for reference.
Test system: 786-O
measurementProtocol: Euclidean distance of Cell Painting phenotypic profile (signed KS, 77 features) to DMSO centroid (dimensionless distance); 5 or 10 uM (library dependent); higher = stronger phenotypic change vs DMSO (phenoactivity)
testContext: 48 h
Counter-ions that a name gives are not always drawn.
Give the value as a plain number.

Previously resolved entries follow.
- CCCC(=O)Nc1cccc(NC(=O)c2ccccc2Br)c1: 1.43
- CS(=O)(=O)c1ccc([C@@H](O)[C@@H](CO)NC(=O)C(Cl)Cl)cc1 [Thiamphenicol]: 1.41
- N#CCCCSC(=N)N [Kevetrin hydrochloride]: 1.5
- CC1(N)CCN(c2cccnc2NC(=O)c2nc(-c3ncccc3C(F)(F)F)cnc2N)CC1: 2.98
- CN1C(=O)OC(C)(C)C1=O [Trimethadione]: 0.978
- CC(N/C(=N\C#N)Nc1ccncc1)C(C)(C)C (stereo not given) [Pinacidil]: 1.01
- O=C(O)[C@@H]1CCCN1 [L-Proline]: 1.26
- C[n+]1ccccc1/C=N/O [Pralidoxime chloride]: 1.41
- Cn1cc(-c2ccc3ncc(Cc4ccc5ncccc5c4)n3n2)cn1: 1.26
- CC(C)c1noc(N2CCC(COc3ccc(-c4ccc(S(C)(=O)=O)cc4)nc3)CC2)n1: 1.17

[in] Identify the measured Euclidean distance of Cc1ccc(C(=O)c2ccc(CC(=O)O)n2C)cc1 [Tolmetin] for 786-O.
[out] 1.07

[in] What is its Euclidean distance for 786-O? Entry: COC(=O)C1=C(C)NC(C)=C(C(=O)OCCN(C)Cc2ccccc2)C1c1cccc([N+](=O)[O-])c1 (stereo not given) [Nicardipine HCl]
[out] 1.27

[in] GET /values?readout=Euclidean distance&system=786-O&item= COc1ccc([C@]2(C#N)CC[C@@H](C(=O)O)CC2)cc1OC1CCCC1 [Cilomilast]
[out] 1.31

[in] Tell me reported Euclidean distance for CSCCNc1nc(SCCC(F)(F)F)nc2c1ncn2[C@@H]1O[C@H](COP(=O)(O)OP(=O)(O)C(Cl)(Cl)P(=O)(O)O)[C@@H](O)[C@H]1O [Cangrelor Tetrasodium] , tested with 786-O.
[out] 1.09

[in] Request body: readout Euclidean distance, system 786-O, query CCCCCCCCCC(=O)N[C@H]1[C@H](Oc2c3cc4cc2Oc2ccc(cc2Cl)[C@@H](O[C@@H]2O[C@H](CO)[C@@H](O)[C@H](O)[C@H]2NC(C)=O)[C@@H]2NC(=O)[C@H](NC(=O)[C@@H]4NC(=O)[C@H]4NC(=O)[C@@H](Cc5ccc(c(Cl)c5)O3)NC(=O)[C@H](N)c3ccc(O)c(c3)Oc3cc(O)cc4c3)c3ccc(O)c(c3)-c3c(OC4O[C@H](CO)[C@@H](O)[C@H](O)[C@@H]4O)cc(O)cc3[C@@H](C(=O)O)NC2=O)O[C@H](CO)[C@@H](O)[C@@H]1O (stereo not given in full) [Teicoplanin] . Return the value.
[out] 1.09

[in] Give 786-O Euclidean distance for C=CC(=O)Nc1cc(Nc2nccc(-n3cc(CN(C)C)c(-c4ccccc4)n3)n2)c(OC)cc1N1CCOCC1
[out] 0.904

[in] Query Euclidean distance on 786-O for CCCC(=O)Nc1ncnc2c1ncn2[C@@H]1O[C@@H]2COP(=O)(O)O[C@H]2[C@H]1OC(=O)CCC [Dibutyryl-cAMP (Bucladesine)]
[out] 1.05

[in] What Euclidean distance appears in the records for this compound with 786-O? CC(C)CCCCC(=O)N[C@@H](CCN)C(=O)N[C@H](C(=O)N[C@@H](CCN)C(=O)N[C@H]1CCNC(=O)[C@H]([C@@H](C)O)NC(=O)[C@H](CCN)NC(=O)[C@H](CCN)NC(=O)[C@H](CC(C)C)NC(=O)[C@@H](Cc2ccccc2)NC(=O)[C@H](CCN)NC1=O)[C@@H](C)O [Polymyxin B sulphate]
[out] 1.64

[in] Test system 786-O; read-out Euclidean distance; what value for Cc1ccc(-c2ncc(Cl)cc2-c2ccc(S(C)(=O)=O)cc2)cn1 [Etoricoxib] ?
[out] 0.705

[in] Item COc1c(O[C@@H]2O[C@H](CO)[C@@H](O)[C@H](O)[C@H]2O)cc2c(c1OC)-c1ccc(SC)c(=O)cc1[C@@H](NC(C)=O)CC2 [Thiocolchicoside] with 786-O - Euclidean distance?
[out] 0.819

[in] Item: c1ccc(NCc2ccc(CNc3ccccn3)cc2)nc1 Test system: 786-O Read-out: Euclidean distance Value: ?
[out] 0.787
